# credit: the supplement of paper PMC12632987

For each entry below, report its median log2 fold change value.
target: UCHL1, P09936; assay: median log2 fold change of GCK-ALFA target abundance (FLAG IP / Myc IP barcode read proportion) (log2 ratio); each designed protein is fused to an ALFA-tag nanobody in HEK293 cells to bring the named protein to FLAG-tagged glucokinase (GCK); Myc marks an untargeted standard; higher = target protein stabilised (more abundant); conditions: target protein: 3xFLAG-MCP-GCK-ALFA reporter; HEK293 landing pad (RPLP)
Sequence (P09936 whole entry, looked up, the tested form may be a part): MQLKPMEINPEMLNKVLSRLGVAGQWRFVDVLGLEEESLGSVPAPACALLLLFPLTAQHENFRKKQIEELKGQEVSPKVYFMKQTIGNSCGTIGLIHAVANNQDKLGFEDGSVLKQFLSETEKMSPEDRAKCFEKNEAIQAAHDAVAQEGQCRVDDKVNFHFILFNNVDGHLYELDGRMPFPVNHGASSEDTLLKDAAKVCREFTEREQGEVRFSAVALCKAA
Keep it simple and answer with nothing but the number.

Quick note, median log2 fold change for uchl1_2_7550 (protein) EPRFVGVLVTVTSTNPETGEVFRSRRNFIGTADAVAAMMAEVEEYVLRFKEVNGGAVAVDLHVVVSTEEDAARARAEAAKLAARLAAEGITATVTVTVVE landed at -0.0947

Consider uchl1_122_7448 (protein) TVTVEVVGRREDIELIAAVIREVFAAAGIEVDVEIEELSPTTARLVVTIRAPPMTDAQVDATIAALAAAMARLVEEAGISRALAGIAFTRVERALRRAAA . Its measured median log2 fold change is 0.0437

Lab note: measured median log2 fold change of uchl1_89_7591 (protein) EAERLERARAHLREVLARTRERVEAIIARLGEPDPALVAARERVFAAAERAIADPARAAEYVAEAEAAARELVALAPPEFRSDFRMALGRLINRLLGYAA was 0.0711

In plain terms, uchl1_155_7497 (protein) MTTVTVVVTGTSPDGTTVTKTKTFEGLTSSVADLEALREAMKAMIVETAKEVKGDVDVTVNVTNATANQAVGIGTAARRAANEAGKETGLTVSLTLVGVP has a documented median log2 fold change of 0.314

median log2 fold change measured on uchl1_199_7509 (protein) SSKTRSIAINMAGRLLRYIMDPETARERALRLARELITRRPGLSVEEITETFELLVRLVAAERDPETVRAVTDAIVEAILELLGDEEAAARVRATAEALV = -0.0199

For reference, reported median log2 fold change for uchl1_143_7471 (protein) GEPEPPTLEVHIEVDETTTPEEIREKLWKAIEEAAKAKKNLKITITVPADSNKRLMVTTVAKRVAREAAKKYKNELKKLEIYARDAATGKEQLIAEYENP stands at 0.0842

Record uchl1_143_7477 (protein) GAPEEPIETIKLTLDASMSDEEIRAKAMAAAEEAAAKGAALEITIVVPPDPNARVRANNIAKRIAREIIQKYGDKIKELKIYLQDEETGKKDLIALYEKP , field median log2 fold change: 0.136

Measured median log2 fold change of uchl1_2_7519 (protein) KTVIVGVLVDMRAYDPETGREYRARHTLIGTETAIEAMVEEIRERILAFRDDVGVPVEVDLHIVSSREEVARRLEALLKEMAAELAPEGVTVRISVTVTK : -0.204

Value of measured median log2 fold change for the entry uchl1_122_7436 (protein) MITIEVLVTSSLSPEGLAIIKDYAAKLLKDAEFKEEEVSPGTLLLTITGELKDVSDEEILEIRREAEERASKNQNLTPNERVSFGNALRRIARAVAKAKA : 0.0349
